System: Helicobacter pylori
Experiment: Antimicrobial activity against Helicobacter pylori (MIC)
Type: cell-based, Helicobacter pylori strain NCTC 11916
Settings: NCTC11916, strain NCTC 11916, twofold dilution, 37° C., 3-5 days, O2 about 5%
Can you tell me MIC for the items I'm about to list?
Give bare numbers, in µg/mL.

These solved cases illustrate the format of a correct answer.
CHEMICAL_SMILES | TARGET | MIC (µg/mL)
O=C(CCCNC(=S)Nc1ccccc1[N+](=O)[O-])NCCCOc1cccc(CN2CCCCC2)c1 | Helicobacter pylori | 6.25
O=C(CCCNC(=S)NCc1cccs1)NCCCOc1cccc(CN2CCCCC2)c1 | Helicobacter pylori | 6.25
CNC(=S)NCCCC(=O)NCCCOc1cccc(CN2CCCCC2)c1 | Helicobacter pylori | 6.25
COc1ccc(NC(=S)NCCCC(=O)NCCCOc2cccc(CN3CCCCC3)c2)cn1 | Helicobacter pylori | 6.25

Batch request: MIC per item, same order as input.
1. CSc1ccccc1NC(=S)NCCCC(=O)NCCCOc1cccc(CN2CCCCC2)c1
2. O=C(CCCNC(=S)NCCc1ccccc1)NCCCOc1cccc(CN2CCCCC2)c1
3. CC(C)c1ccc(NC(=S)NCCCC(=O)NCCCOc2cccc(CN3CCCCC3)c2)cc1
4. CCCCNC(=S)NCCCC(=O)NCCCOc1cccc(CN2CCCCC2)c1
5. Cc1cc(C)c(NC(=S)NCCCC(=O)NCCCOc2cccc(CN3CCCCC3)c2)c(C)c1
6. O=C(CCCNC(=S)Nc1ccccc1)NCCCOc1cccc(CN2CCCCC2)c1
7. O=C(CCCNC(=S)Nc1ccccc1C(F)(F)F)NCCCOc1cccc(CN2CCCCC2)c1

[6.25, 6.25, 6.25, 6.25, 6.25, 12.5, 6.25]
